# Test system: Hep 3B2
# Procedure summary: Cytotoxicity against human Hep3B cells assessed as growth inhibition
# Assay type: functional, cell-based
Reported metric: IC50 (µM)
Give the number; µM is assumed, so skip it.

Test item `O=C1C=CC[C@H](/C=C/c2ccccc2)O1` ; Hep 3B2; reported IC50 was 5.4

---

# System: Huh-7
# Procedure summary: Cytotoxicity against human HuH7 cells expressing positive EpCAM/CD133 assessed as reduction in cell viability measured after 48 hrs by MTT assay
# Type: functional, cell-based
# Cond: Huh-7, 48 h
Reported metric: pIC50
API: returns pIC50 as number; meaning -log10 of concentration in mol/L.

`Cc1ccc([C@H]2CC=CC(=O)O2)c2ccccc12` has a reported pIC50 of 5.60
